- MEASURED_ON: T1, human IgE CH3-CH4-M1′/Fc fusion protein (human)
- T1 construct: also called M1′ (immobilized)
- ASSAY_SUMMARY: SPR Biacore 2000, M1′-Fc immobilized
REPORTED_ENDPOINT: pKd
# pKd is unitless: minus log10 of the molar concentration; print number only

Solved cases below.
{"columns": ["BINDER", "pKd"],
 "data": [
  ["humanized anti-IgE/M1′ antibody 26A11.v15 (antibody, V domains shown, produced as IgG) VH: EVQLVESGGGLVQPGGSLRLSCAASGYTFTDYYIMWVRQAPGKGLEWVGDINPNNYDTSYNQKFKGRFTISADTSKNTAYLQMNSLRAEDTAVYYCASKAYWGQGTLVTVSS VL: DIQMTQSPSSLSASVGDRVTITCRSSQDISSSLNWYQQKPGKAPKLLIYSTSRLHSGVPSRFSGSGSGTDFTLTISSLQPEDFATYYCQQGHTLPWTFGQGTKVEIKR", 8.08],
  ["murine anti-IgE/M1′ antibody 47H4 (antibody, V domains shown, mIgG1 hybridoma antibody; also called mu47H4; 47H4 mIgG1) VH: EVKLVESGGGLVQPGGSRKLSCAASGFTFSDYGMAWVRQAPGKGPEWVAFISDLAYTIYYADTVTGRFTISRENAKNTLYLEMSSLRSEDTALYYCARDNWDAMDYWGQGTSVTVSS VL: DIVLTQTPLSLPVSLGDQASISCRSSQSLVHNNGNTYLHWYLQKPGQSPKLLIYKVSNRFSGVPDRFSGSGSGTDFTLKISRLEAEDLGVYFCSQNTLVPWTFGGGTKVEIKR", 7.92]
]}

With those in mind, consider the next binder.
Please report the recorded pKd for humanized anti-IgE/M1′ antibody 26A11.v3 (antibody, V domains shown, produced as IgG) VH: EVQLVESGGGLVQPGGSLRLSCAASGYTFTDYYMMWVRQAPGKGLEWVGDINPNNYDTSYNQKFKGRFTISADTSKNTAYLQMNSLRAEDTAVYYCASKAYWGQGTLVTVSS VL: DIQMTQSPSSLSASVGDRVTITCRSSQDISNYLNWYQQKPGKAPKLLIYSTSRLHSGVPSRFSGSGSGTDFTLTISSLQPEDFATYYCQQGHTLPWTFGQGTKVEIKR .
8.55
